Listed below: pKd values for each entry.
# targetEntity: human β2-AR (Homo sapiens)
# Sequence (P07550 whole entry): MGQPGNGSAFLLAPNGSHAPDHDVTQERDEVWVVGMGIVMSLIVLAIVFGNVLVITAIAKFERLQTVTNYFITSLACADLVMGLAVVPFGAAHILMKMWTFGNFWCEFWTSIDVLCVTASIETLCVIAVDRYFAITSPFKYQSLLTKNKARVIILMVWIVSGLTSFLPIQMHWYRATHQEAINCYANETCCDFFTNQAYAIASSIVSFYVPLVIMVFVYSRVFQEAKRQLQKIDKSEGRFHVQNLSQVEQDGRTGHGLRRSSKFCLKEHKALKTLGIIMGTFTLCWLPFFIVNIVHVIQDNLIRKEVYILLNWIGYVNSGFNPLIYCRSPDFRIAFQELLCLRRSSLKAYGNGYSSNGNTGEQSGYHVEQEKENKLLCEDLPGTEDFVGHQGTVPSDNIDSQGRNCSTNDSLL
# testProtocol: 3H-CGP12177 whole-cell binding in CHO-β2-CRE-SPAP cells
Reminder that pKd is minus the log10 of a molar concentration.

Some entries whose results are on file:
> print(dat)
                                   molecule  valuetype  testvalue
1  Cc1cc2c(OC[C@@H](O)CNC(C)(C)C)cccc2[nH]1        pKd      10.53
2              COc1ccccc1OC[C@@H](O)CNC(C)C        pKd       7.91
3  CC(C)(Cc1c[nH]c2ccccc12)NCC(O)COc1ccccc1C#N (stereo not drawn) [Bucindolol, reference compound]        pKd      10.29

*Q* I'm curious: which pKd was measured for Cc1cc(C)c(OC[C@@H](O)CNC(C)C)c(C)c1 tested on human β2-AR (Homo sapiens)?
*A* 5.49

*Q* Now consider CC(C)(C)NC[C@@H](O)COc1ccccc1C#N .
*A* 8.96

*Q* Now consider O[C@H](CNCCc1c[nH]c2ccccc12)COc1ccc(F)cc1 .
*A* 7.05

*Q* Now consider COc1ccc(OCC(O)CNCCc2c[nH]c3ccccc23)cc1 (stereo not drawn) .
*A* 6.01

*Q* Now consider OCCOc1ccc(CNCCc2c[nH]c3ccccc23)cc1 .
*A* 5.05

*Q* Now consider C=CCc1ccccc1OCCNCCCOC .
*A* 5.17

###

Listed below: % Isoprenaline values for each entry.
# targetEntity: UniProt P07550
# testProtocol: CRE-SPAP production in CHO-β2-CRE-SPAP cells
# Assay type: cell-based
# Set-up: expressed in transfected cells; host or cells: CHO-K1 clonal line (CHO-β2-CRE-SPAP)
# details: response compared with 10 μM isoprenaline
Record the value in %, omitting the unit from your answer.

Some entries whose results are on file:
> print(dat)
                                   compound  resultunits  testvalue
1  CC(C)(Cc1c[nH]c2ccccc12)NCC(O)COc1ccccc1C#N (centres unmarked) [Bucindolol, reference compound]            %       70.3
2  Cc1cc2c(OC[C@@H](O)CNC(C)(C)C)cccc2[nH]1            %       52.1

*Q* Given the entry CC(C)(C)NC[C@@H](O)COc1cccc2c1CCC(=O)N2 , report its measured % Isoprenaline.
*A* 55.1

*Q* Now consider O[C@H](CNCCc1c[nH]c2ccccc12)COc1ccc(F)cc1 .
*A* 28.7

*Q* Now consider CC(C)(C)NC[C@@H](O)COc1ccccc1C#N .
*A* 65.8

*Q* Now consider C=CCOc1ccccc1OCC(O)CNC(C)C (racemic) [Oxprenolol, reference compound] .
*A* 40.1

*Q* Now consider COc1ccccc1OC[C@@H](O)CNC(C)C .
*A* 63.2

*Q* Now consider COc1ccc(OCC(O)CNCCc2c[nH]c3ccccc23)cc1 (centres unmarked) .
*A* 15.2

###

# targetEntity: β1-V189T-L195Q-W199Y (Homo sapiens, UniProt P08588, L195Q/V189T/W199Y)
# Sequence (P08588 whole entry V189T/L195Q/W199Y): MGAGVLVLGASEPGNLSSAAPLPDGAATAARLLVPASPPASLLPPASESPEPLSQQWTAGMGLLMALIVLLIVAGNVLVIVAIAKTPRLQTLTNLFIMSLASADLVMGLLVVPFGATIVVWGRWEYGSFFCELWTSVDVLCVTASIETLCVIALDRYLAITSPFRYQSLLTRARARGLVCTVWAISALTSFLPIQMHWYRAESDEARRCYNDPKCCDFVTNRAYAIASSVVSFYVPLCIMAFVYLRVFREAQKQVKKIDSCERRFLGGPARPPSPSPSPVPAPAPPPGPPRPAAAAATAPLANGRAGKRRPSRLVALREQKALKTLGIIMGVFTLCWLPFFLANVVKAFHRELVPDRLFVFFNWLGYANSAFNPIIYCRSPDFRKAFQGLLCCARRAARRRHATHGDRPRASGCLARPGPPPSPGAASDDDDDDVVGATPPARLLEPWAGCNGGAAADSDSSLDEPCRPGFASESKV
# testProtocol: CRE-SPAP production in stable mixed populations of CHO cells expressing β1-V189T-L195Q-W199Y
# details: agonist action, β1-V189T-L195Q-W199Y stable mixed populations
valueType: pEC50
Reminder that pEC50 is minus the log10 of a molar concentration.

> print(dat)
                                  compound  testvalue
1  CC(C)(C)NC[C@@H](O)COc1ccccc1C#N [VL09]       9.20

Now examine the next entry.
*Q* Given the entry Cc1cc2c(OC[C@@H](O)CNC(C)(C)C)cccc2[nH]1 [VL01] , report its measured pEC50.
*A* 9.59
